Value source: patent US20170166631A1

# tested_on: T1, HD49 (huntingtin exon 1 protein with 49 polyQ repeats after cleavage of the GST tag; aggregation reaction) (human, UniProt P42858 1-88)
# T1 chain: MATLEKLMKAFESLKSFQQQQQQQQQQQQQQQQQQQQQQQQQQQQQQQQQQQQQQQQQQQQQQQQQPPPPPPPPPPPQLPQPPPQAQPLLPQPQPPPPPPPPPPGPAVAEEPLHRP
# test_description: ELISA
Record form. Attribute: EC50. Fill in for each entry.
One number for each entry, in nM.

>  <binder>
NI-302.6N9 (antibody, V domains shown) VH: EVQLVESGGDLVQPGGSLRLSCVVSGFTFSSYAMTWVRQAPGKGLAWVSTISATGGSTFYTDSVRGRFTISRDNSKNTLYLQMNSLRTDDTAIYYCVKDLFGVDTSYYGMDVWGQGTTVTVSS VL: EIVLTQSPGTLSLSPGERATLSCRPSQSVSGRYVAWYQQKPGQAPRLLFYAASNRAIGIPDRFSGSGSGTDFTLTISRLEPEDFAVYYCQHYGASSYTFGPGTKVDIK

>  <unit_of_measurement>
nM

>  <EC50>
0.19

$$$$

// batch mode: one EC50 value per listed entry
1. NI-302.31F11 (antibody, V domains shown) VH: EVQLVESGGGLIQPGGSLRLSCAASGFTVSSTYMSWVRQAPGKGLECVSVIFSGADTYYADSVKGRFTVSRDNSKNTLFLQMNSLRVEDTATYYCVRHYYGSDLPSDFWGQGTLVTVSS VL: DVVMTQSPLSLPVAPGEPASISCRSSQSLLYSNGYNYLDWYLQKPGKPPQLLVYLGSDRASGVPDRFSGSGSGKDFTLNISRVEAEDVGVYYCMQGLQSPWTFGQGTKLEIK
2. NI-302.33C11 (antibody, V domains shown) VH: EVQLVESGGGVVQPGNSLRLSCAASGFRFSDFGMHWVRQAPGKGLEWLALIWYDGGYKYYADSVKGRFTISRDNSKNTMFLQMNSLRAEDTAVYYCATHLEYCSRTTCYLGHWGQGTLVTVSS VL: DIQLTQSPSFLSASVGDTVTFTCRASQGISDYLAWFQQKPGIAPKLLIYAASTLQTGVPSRFSGSGSGTEFTLTIRSLQSEDFGTYYCQQLKTYPYTFGQGTKVEIK

Output:
1: 0.6; 2: 0.15
